- Test system: 422866-222-R5-J1-PDC spheroids with HUVEC/MSC, viability;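 also: spheroids exposed to compounds for seven days before reading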
- TEST: Anticancer human tumor 422866-222-R5-J1-PDC patient-derived pancreatic adenocarcinoma cell line growth inhibition [GQUAD]
- TEST_SETTINGS: second compound 0.0316 µM; first compound 0.316 µM; stronger effect = lower value
Decide using viability, T/C alone. Strictly below 90%: Criterion met. Equal to or above 90%: Criterion not met.

Study these solved cases before continuing.
{"COMPOUND": "CCCS(=O)(=O)Nc1ccc(F)c(C(=O)c2c[nH]c3ncc(-c4ccc(Cl)cc4)cc23)c1F + Cc1cnc(CNC(=O)c2c(=O)c3ccc(N4CCCN(C)CC4)nc3n3c2sc2ccccc23)cn1", "CLASS_LABEL": "Criterion not met"}
{"COMPOUND": "Cc1[nH]c2ccccc2c1CCNCc1ccc(/C=C/C(=O)NO)cc1 + CN(C)c1ccc(Nc2c3ccc(NC(=O)CCN4CCCC4)cc3nc3cc(NC(=O)CCN4CCCC4)ccc23)cc1", "CLASS_LABEL": "Criterion met"}
{"COMPOUND": "O=c1[nH]cc(F)c(=O)[nH]1 + CN(C)c1ccc(Nc2c3ccc(NC(=O)CCN4CCCC4)cc3nc3cc(NC(=O)CCN4CCCC4)ccc23)cc1", "CLASS_LABEL": "Criterion not met"}
{"COMPOUND": "Cc1[nH]c2ccccc2c1CCNCc1ccc(/C=C/C(=O)NO)cc1 + Cc1cnc(CNC(=O)c2c(=O)c3ccc(N4CCCN(C)CC4)nc3n3c2sc2ccccc23)cn1", "CLASS_LABEL": "Criterion met"}
{"COMPOUND": "O=C(NO)c1cnc(N2CCN(S(=O)(=O)c3ccc4ccccc4c3)CC2)nc1 + Cc1[nH]c2ccc(F)cc2c1-c1nc2c3cccnc3c3ncccc3c2[nH]1", "CLASS_LABEL": "Criterion met"}
{"COMPOUND": "C=CCn1c(=O)c2cnc(Nc3ccc(N4CCN(C)CC4)cc3)nc2n1-c1cccc(C(C)(C)O)n1 + Cc1cnc(CNC(=O)c2c(=O)c3ccc(N4CCCN(C)CC4)nc3n3c2sc2ccccc23)cn1", "CLASS_LABEL": "Criterion met"}
{"COMPOUND": "Cc1cccc(N(C)C(=O)C2C(O)CCN2c2nc(C)cc(C(F)(F)F)c2C#N)c1 (stereo unspecified) + CN(C)c1ccc(Nc2c3ccc(NC(=O)CCN4CCCC4)cc3nc3cc(NC(=O)CCN4CCCC4)ccc23)cc1", "CLASS_LABEL": "Criterion not met"}
{"COMPOUND": "O=C(c1cc(Cc2n[nH]c(=O)c3ccccc23)ccc1F)N1CCN(C(=O)C2CC2)CC1 + Cc1cnc(CNC(=O)c2c(=O)c3ccc(N4CCCN(C)CC4)nc3n3c2sc2ccccc23)cn1", "CLASS_LABEL": "Criterion met"}

Ask | I wonder whether CC(C)n1c(=O)n(C)c2cnc3cc(F)c(-c4ccc(OCCCN5CCCCC5)nc4)cc3c21 + Cc1cnc(CNC(=O)c2c(=O)c3ccc(N4CCCN(C)CC4)nc3n3c2sc2ccccc23)cn1 has viability, T/C below 90%. Can you tell?
Reply | Criterion met

Ask | Check if viability, T/C falls below 90% for COc1ccc([C@@H](O)c2cc(-c3ncnc4cc(N5CCOCC5)ccc34)c(F)cc2Cl)nn1 + Cc1cnc(CNC(=O)c2c(=O)c3ccc(N4CCCN(C)CC4)nc3n3c2sc2ccccc23)cn1 .
Reply | Criterion met

Ask | State whether 90% exceeds viability, T/C recorded for CC(C)n1c(=O)n(C)c2cnc3cc(F)c(-c4ccc(OCCCN5CCCCC5)nc4)cc3c21 + CN(C)c1ccc(Nc2c3ccc(NC(=O)CCN4CCCC4)cc3nc3cc(NC(=O)CCN4CCCC4)ccc23)cc1 .
Reply | Criterion not met

Cited source: PubChem BioAssay AID2060511
